# system name: T1, P6-AA-12HAA-Y
# T1 chain: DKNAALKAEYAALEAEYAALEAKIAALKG
# procedure summary: two-hybrid library CCmax;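 note: natural log of median RNA to DNA barcode read ratio; higher means stronger binding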
# experimental setup: mean of both orientations
measured attribute: interaction score

Take a look at these entries with their results.
DENAALEAKYAALKAKYAALKAEIAALEG [P5-AA-12HAA-Y]
1.48
DENAALEAKRAALKAKRAALKAEIAALEG [P5-AA-12HAA-R]
-1.07

1. DENAALEAKHAALKAKHAALKAEIAALEG [P5-AA-12HAA-H]
2. DENAALEAKNAALKAKNAALKAEIAALEG [P5-AA-1HAA-N]
Among 1 and 2 , which shows a numerically higher interaction score result? Reply briefly: the label of your chosen item.
2
(2: 0.697, 1: -0.856)
